details: male, Sprague Dawley, rat, in vivo, po, 5 mg/kg, 2 h
Plasma:Brain Ratio values for the compounds below.
reportedProperty: Plasma:Brain Ratio

compound: CCc1ccc(CN(CCC(=O)[O-])c2nc(C3CCC(C)CC3)cs2)s1.[Na+] (stereo not drawn) [Example 5]
obsValue: 2.6:1
//
compound: CCc1ccc(CN(CCC(=O)[O-])c2nc([C@H]3CC[C@H](C(C)(C)C)CC3)cs2)s1.[Na+] [Example 8]
obsValue: 3.3:1
//
compound: CCc1ccc(CN(CCC(=O)[O-])c2nc(C3CCC(c4ccccc4)CC3)cs2)s1.[Na+] (stereo not drawn) [Example 39]
obsValue: 4.0:1
//
compound: Cc1ccc(CN(CCC(=O)[O-])c2nc(C3(C)CCC(C)CC3)cs2)s1.[Na+] (stereo not drawn) [Example 46]
obsValue: 1.9:1
//
compound: O=C([O-])CCN(Cc1cccs1)c1nc(-c2ccc(-c3ccccc3)cc2)cs1.[Na+] [Reference Compound B, reference compound]
obsValue: 1.5:1
//
compound: C[C@H]1CC[C@H](Oc2ccc(-c3csc(N(CCC(=O)[O-])Cc4cccs4)n3)cc2)CC1.[Na+] [Reference Compound C, reference compound]
obsValue: 2.0:1
